target: Glucose transporter (Leishmania mexicana); assay: ST_JUDE_LEISH: Cytotoxicity at 2uM final concentration against transgenic Leishmania Mexicana promastigotes LmGT2 that are glucose transport deficient and complemented with the L. Mexicana glucose transporter 2. Activity is measured by DNA content using SYBR green in vitro; assay type: functional
Documented inhibition across a set of molecules
Give a bare numeral; the unit % is implied.

Example entries begin here.
INSERT INTO measurements (structuresmiles, measurement) VALUES
  ('N#Cc1ccc(-c2ccc(C(=O)NCCCCN3CC=C(c4ccc5c(c4OCC4CC4)CCCC5)CC3)cc2)cc1', -0.24),
  ('c1ccc(Oc2ccc(Nc3ccnc4cc(-c5cccc(CNCCN6CCOCC6)c5)ccc34)cc2)cc1', 1.68),
  ('CC(=O)Nc1ccc(OCCCCN(Cc2ccccc2OC(F)(F)F)c2ccc(C(F)(F)F)c(C#N)c2)c(Cl)c1', 7.95),
  ('CCOc1ccc(OCC(=O)Nc2nc(-c3ccc(OC)cc3)c(C)s2)cc1', 1.45);

Now take the following molecule into account.
Challenge: Return reported inhibition. Input molecule: COc1ccc2nccc([C@@H](O)CN3CCC(NC(=O)c4cc5cccnc5[nH]4)CC3)c2c1
Response given: -0.32

---

target: Hexose transporter 1 (Plasmodium falciparum) (UniProt O97467); assay: ST_JUDE_LEISH: Cytotoxicity at 2uM final concentration against transgenic Leishmania Mexicana promastigotes LmPfHT that are glucose transport deficient and complemented with the Plasmodium falciparum hexose transporter. Activity is measured by DNA content using SYBR green in vitro; type: functional
measurementName: inhibition (%)
Numeric answer only, unit % assumed.

Some solved entries appear below for comparison.
INSERT INTO assay_data (molecule, measurementname, outputunit, measurement) VALUES
  ('COc1c(C2CCN(CCN3CCC(NC(=O)c4ccc(-c5ccc(C(F)(F)F)cc5)cc4)CC3)CC2)ccc2c1CCCC2', 'inhibition', '%', 1.26),
  ('COc1cc(C(=O)NC2CC(C)(C)N(C)C(C)(C)C2)ccc1-c1nc2cc(Cl)c(Cl)cc2[nH]1', 'inhibition', '%', 1.21),
  ('COc1cccc(C(O)CNc2ccnc(Nc3cccc(-c4csc(C)n4)c3)n2)c1 (stereo not given)', 'inhibition', '%', -0.04),
  ('O=C(/C=C/c1ccc(Cl)c(Cl)c1)NCCCCCN1CCC(C(=O)Nc2ccc(Cl)cc2)CC1', 'inhibition', '%', 0.72);

Challenge: Check the records and state inhibition for Cc1[nH]n(-c2cccc(Cl)c2)c(=O)c1-c1ccc(Cl)cc1
Response given: -2.18

---

target: Hexose transporter 1 (Plasmodium falciparum) (UniProt O97467); test: ST_JUDE_LEISH: Cytotoxicity at 2uM final concentration against transgenic Leishmania Mexicana promastigotes LmPfHT that are glucose transport deficient and complemented with the Plasmodium falciparum hexose transporter. Activity is measured by DNA content using SYBR green in vitro; type: functional
measurementName: inhibition
For clarity, give the value followed by its unit.

Check out these entries, answers already filled in.
INSERT INTO measurements (compound, experimentalsystem, measurementname, measurement) VALUES
  ('O=C(NC1CCCCN(Cc2ccccc2O)C1)c1ccc(Cl)c(Cl)c1 (stereo not given)', 'Hexose transporter 1 (Plasmodium falciparum) (UniProt O97467)', 'inhibition', '5.13%'),
  ('COc1ccc(CN2CCN(CCCCNC(=O)c3ccc(NC(=O)c4ccc(Cl)cc4)cc3)CC2)c(OC)c1', 'Hexose transporter 1 (Plasmodium falciparum) (UniProt O97467)', 'inhibition', '4.9%'),
  ('N=C(N)Nc1nc(-c2ccc(NC(=N)N3CCC[C@H]3CN3CCCC3)cc2)cs1', 'Hexose transporter 1 (Plasmodium falciparum) (UniProt O97467)', 'inhibition', '-0.2%'),
  ('COc1ccc(NS(=O)(=O)c2ccccc2Br)cc1N1CCN(C)CC1', 'Hexose transporter 1 (Plasmodium falciparum) (UniProt O97467)', 'inhibition', '-0.27%'),
  ('Cc1cccc2nc(-c3ccc(-c4ccc(CN5CCN(c6ccncc6)CC5)cc4)s3)[nH]c12', 'Hexose transporter 1 (Plasmodium falciparum) (UniProt O97467)', 'inhibition', '2.29%');

Challenge: Return reported inhibition. Input compound: Cc1cc(CNC(c2ccccc2)C2CCC2)cc(C)c1O (stereo not given)
Response given: 14.3%

Challenge: Name the recorded inhibition of the item COc1ccc2nccc([C@@H](O)CN3CCC(NCc4cnc5c(c4)NC(=O)CS5)C(F)C3)c2c1 (stereo not given in full) in your answer.
Response given: -0.31%

Challenge: Indicate its recorded inhibition; the compound in question is CCNC(=O)N[C@@H]1CN[C@@H](C#Cc2cc3c(Nc4ccc(OCc5cccc(F)c5)c(Cl)c4)ncnc3s2)C1
Response given: -1.15%

Challenge: For the compound CCN(CC)CC(O)CNc1c2ccc([N+](=O)[O-])cc2nc2cc(OC)c(OC)cc12 (stereo not given) , give its reported inhibition.
Response given: 71.7%

Challenge: Name the recorded inhibition of the compound listed here: Cc1cnc(Nc2cccnc2)nc1Nc1ccccc1C(=O)NC(C)C
Response given: 1.12%

Challenge: State its inhibition: N#Cc1ccccc1N1CCN(C2CCC(NC(=O)c3n[nH]c4cc(C(F)(F)F)ccc34)CC2)CC1 (stereo not given)
Response given: 1.88%

Challenge: State its inhibition: COc1ccc(NC(=O)/C=C/c2ccccc2Cl)cc1OCCN1CCC(NCc2ccccc2)CC1
Response given: 2.49%

Challenge: Consider the compound O=C(Nc1ccc2c(c1)CCN2C1CCN(Cc2cccc(C(F)(F)F)c2)C1)c1ccco1 (stereo not given) and give its recorded inhibition.
Response given: 0.28%

Challenge: Give the reported inhibition for this compound. CCCC(=O)Nc1ccc(OCCCCN(Cc2ccccc2C(F)(F)F)c2ccc(C(F)(F)F)c(C#N)c2)cc1
Response given: 5.86%

Challenge: Tell me measured inhibition for COc1ccc(-c2c(-c3ccc(OCc4ccccc4)cc3O)n[nH]c2C(F)(F)F)cc1 please.
Response given: 1.26%

Challenge: Please report the measured inhibition for CS(=O)(=O)c1ccc(CNCc2cccc(-c3cccc(-c4nc5cc(F)ccc5[nH]4)c3)c2)cc1
Response given: 0.6%

Challenge: Item CN1CCCN(Cc2ccc(-c3cccc(NC(=O)c4ccc(C#N)cc4)c3)cc2)CC1 : provide inhibition
Response given: 4.1%

Challenge: Tell me its inhibition given COc1ccc(CCn2c(=N)c(C(=O)NCc3cccnc3)cc3c(=O)n4ccccc4nc32)cc1 as the entry.
Response given: 10.9%

Challenge: State, in one line, measured inhibition of CCCNCc1ccc(-c2ccc(CN(C(=O)c3nn(-c4ccccc4)nc3C)C3CC3)cc2)nc1
Response given: 0.58%

FYI, the data here is from ChEMBL document CHEMBL3433997.
